tested on: astro; experiment: Drug repurposing screens with cells derived from glioblastoma tumor samples (AID 1345199); conditions: viability, ATP luminescence, 48 h; series mostly up to 45.9 µM; also: nearly all actives have a fitted effect of over 40% in size
Inconclusive results are not listed. Active and inactive are the calls of the source. Calls follow the shape of the dose curve; as a rule, active = well fitted inhibition curve with a large enough effect; inconclusive = small, poorly fitted or top-dose-only effect; inactive = flat fitted curve, though single readings scatter.
Labels: active, inactive

>  <molecule>
CC(C)C1CCC(C(=O)N[C@H](Cc2ccccc2)C(=O)O)CC1 (stereo partly specified)

>  <classification>
inactive

$$$$
>  <molecule>
COC(=O)Nc1nc2ccc(Sc3ccccc3)cc2[nH]1

>  <classification>
active

$$$$
>  <molecule>
O=NN(CCCl)C(=O)NC1CCCCC1

>  <classification>
inactive

$$$$
>  <molecule>
CN(CCOc1ccc(CC2SC(=O)NC2=O)cc1)c1ccccn1 (stereo unspecified)

>  <classification>
inactive

$$$$
>  <molecule>
O=C(O)CSCC(=O)NC1CCSC1=O (stereo unspecified)

>  <classification>
inactive

$$$$
>  <molecule>
COc1cnc(NS(=O)(=O)c2ccc(N)cc2)nc1

>  <classification>
inactive

$$$$
>  <molecule>
CNS(=O)(=O)CCc1ccc2[nH]cc(C3CCN(C)CC3)c2c1

>  <classification>
inactive

$$$$
>  <molecule>
CC[C@H](NC(C)C)[C@H](O)c1ccc(O)c2[nH]c(=O)ccc12

>  <classification>
inactive

$$$$
>  <molecule>
CCCCc1oc2ccc(NS(C)(=O)=O)cc2c1C(=O)c1ccc(OCCCN(CCCC)CCCC)cc1

>  <classification>
active

$$$$
>  <molecule>
CC1(C)[C@H](C(=O)O)N2C(=O)C[C@H]2S1(=O)=O

>  <classification>
inactive

$$$$
>  <molecule>
CC(C)(C#N)c1cc(Cn2cncn2)cc(C(C)(C)C#N)c1

>  <classification>
inactive

$$$$

* * *

Each entry below carries its recorded activity change, negative = inhibition.
test: qHTS Assay for Lipid Storage Modulators (AID 1519); conditions: Drosophila S3 cells, BODIPY lipid droplet/cell ratio, laser cytometry; at 57.5 µM (top of the series); cells loaded with oleic acid; also: % is scaled to controls: 0 for no effect and ±100 for the full control effect
Results filed as inconclusive are left out.

>  <molecule>
Cc1nnc(NS(=O)(=O)c2ccc(N)cc2)s1

>  <activity change, negative = inhibition / %>
7.74

$$$$
>  <molecule>
COc1c(N2CCNC(C)C2)c(F)cc2c(=O)c(C(=O)O)cn(C3CC3)c12 (stereo unspecified)

>  <activity change, negative = inhibition / %>
6.55

$$$$
>  <molecule>
CCN1CCCC1CNC(=O)c1cc(S(N)(=O)=O)ccc1OC (stereo unspecified)

>  <activity change, negative = inhibition / %>
2.89

$$$$
>  <molecule>
Cc1cc(NS(=O)(=O)c2ccc(N)cc2)no1

>  <activity change, negative = inhibition / %>
10.1

$$$$
>  <molecule>
CCn1cc(C(=O)O)c(=O)c2cc(F)c(N3CCNCC3)cc21

>  <activity change, negative = inhibition / %>
8.94

$$$$
>  <molecule>
CC(C)(C)NC(=O)[C@H]1CC[C@H]2[C@@H]3CC[C@H]4NC(=O)C=C[C@]4(C)[C@H]3CC[C@]12C

>  <activity change, negative = inhibition / %>
-0.33

$$$$
>  <molecule>
CC[C@H](NC(C)C)[C@H](O)c1ccc(O)c2[nH]c(=O)ccc12

>  <activity change, negative = inhibition / %>
-1.12

$$$$
>  <molecule>
S=P(N1CC1)(N1CC1)N1CC1

>  <activity change, negative = inhibition / %>
7.1

$$$$
>  <molecule>
Cc1cccc(Nc2ccncc2S(=O)(=O)NC(=O)NC(C)C)c1

>  <activity change, negative = inhibition / %>
6.92

$$$$
>  <molecule>
CC(C)(Sc1cc(C(C)(C)C)c(O)c(C(C)(C)C)c1)Sc1cc(C(C)(C)C)c(O)c(C(C)(C)C)c1

>  <activity change, negative = inhibition / %>
6.58

$$$$
>  <molecule>
NCCCC(O)(P(=O)(O)O)P(=O)(O)O

>  <activity change, negative = inhibition / %>
6.27

$$$$
